# Read-out: Vascular cell adhesion molecule 1 (VCAM1), VCAM1 (gene 7412)
# test_name: BSK_hDFCGF_VCAM1: BioMAP Diversity Plus: hDFCGF Assay for Vascular cell adhesion molecule 1 (VCAM1) Biomarker Activity (AID 2283065)
# stated_conditions: primary human foreskin fibroblasts; actives raise or lower the signal
The source made the active and inactive calls. Rule for the calls: active = hit-call score of the fitted dose curve at least 0.9, where 1 is the maximum; inactive = score below 0.9.
Possible outcomes: active, inactive

- CCN(CC)CCO: inactive
- O=[N+]([O-])C(Br)(CO)CO: active
- CCCCC(CC)COC(=O)c1ccc(C(=O)OCC(CC)CCCC)c(C(=O)OCC(CC)CCCC)c1 (stereo unspecified): inactive
- OCCCl: inactive
- CC(C)COC(=O)c1ccccc1C(=O)OCC(C)C: active
- CNC(=O)Oc1cccc2c1OC(C)(C)C2: inactive
- Clc1ccc(C(c2ccc(Cl)cc2)C(Cl)(Cl)Cl)cc1: active
- ClC1=C(Cl)[C@]2(Cl)[C@H]3[C@H]([C@@H]4C=C[C@H]3C4)[C@@]1(Cl)C2(Cl)Cl: active
- CCC[CH2][Sn]([Cl])([CH2]CCC)[CH2]CCC: active
- Cc1ccc([N+](=O)[O-])cc1: inactive
- C1=Cc2cccc3cccc1c23: inactive

All figures here come from PubChem BioAssay (EPA / NIEHS).
